- Target Entity: human M2 receptor (Homo sapiens, UniProt P08172)
- Construct: expressed in transfected cells; host or cells: CHO-DUKX (CHO-DUKX-M2-GIRK)
- Sequence (P08172 whole entry): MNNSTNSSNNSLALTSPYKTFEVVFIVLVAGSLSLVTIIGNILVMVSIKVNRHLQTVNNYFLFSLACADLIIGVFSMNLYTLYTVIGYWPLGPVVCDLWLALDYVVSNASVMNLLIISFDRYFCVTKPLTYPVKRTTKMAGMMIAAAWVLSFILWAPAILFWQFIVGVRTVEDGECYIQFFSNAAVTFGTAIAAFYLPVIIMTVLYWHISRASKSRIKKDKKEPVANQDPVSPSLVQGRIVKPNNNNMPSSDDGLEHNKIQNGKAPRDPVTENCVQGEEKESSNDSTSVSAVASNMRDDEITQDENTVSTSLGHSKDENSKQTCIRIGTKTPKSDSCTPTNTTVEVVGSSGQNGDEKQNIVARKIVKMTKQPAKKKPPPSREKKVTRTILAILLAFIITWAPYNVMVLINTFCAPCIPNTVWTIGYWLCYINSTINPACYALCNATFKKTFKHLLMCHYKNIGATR
- Method: Functional M2-GIRK1/4 activation test: allosteric potency (EC50) and efficiency at EC20 acetylcholine
- Assay type: cell-based
- Protocol Conditions: boosting of the acetylcholine effect at EC20 acetylcholine concentration; CHO-DUKX-M2-GIRK cells
Listing of recorded Emax by entry.
The response must be a number in % with no trailing unit.

                                   compound                             target_entity  reported_value
0  O=C(N[C@@H](C1CC1)C(F)(F)F)c1cn(-c2c(F)cc(F)cc2F)c2nc(N3CC[C@H](O)C3)c(F)cc2c1=O  human M2 receptor (Homo sapiens, UniProt P08172)              96

What does the record list as Emax for CN(C)c1nc2c(cc1F)c(=O)c(C(=O)NC(C(F)(F)F)C(F)(F)F)cn2-c1c(F)cc(F)cc1Cl ? 86

What does the record list as Emax for CC(C)[C@@H](C)NC(=O)c1cn(-c2c(F)cc(F)cc2F)c2nc(N3C[C@@H](O)[C@@H](O)C3)c(F)cc2c1=O ? 96

What does the record list as Emax for O=C(NC(C1CC1)(C1CC1)C(F)(F)F)c1cn(-c2c(F)cc(F)cc2F)c2nc(N3C[C@@H](O)[C@H](O)C3)c(F)cc2c1=O ? 100

What does the record list as Emax for O=C(NC(C1CC1)C(F)(F)C(F)(F)F)c1cn(-c2c(F)cc(F)cc2F)c2nc(N3C[C@@H](O)[C@H](O)C3)c(F)cc2c1=O (single isomer, unassigned) ? 100

What does the record list as Emax for CC[C@@H](NC(=O)c1cn(-c2c(F)cc(F)cc2F)c2nc(N3C[C@@H](O)[C@H](O)C3)c(F)cc2c1=O)C(F)(F)F ? 92

====

Listing of recorded Emax by entry.
- Target Entity: human M2 receptor (Homo sapiens)
- Construct: expressed in transfected cells; host or cells: CHO-DUKX (CHO-DUKX-M2-GIRK)
- Method: Functional M2-GIRK1/4 activation test: allosteric potency (EC50) and efficiency at EC20 acetylcholine
- Type: cell-based
- Protocol Conditions: boosting of the acetylcholine effect at EC20 acetylcholine concentration; CHO-DUKX-M2-GIRK cells
The response must be a number in % with no trailing unit.

For orientation, consider the following solved cases.
Compound	Target Entity	Emax (%)
CC(C)(NC(=O)c1cn(-c2ncc(F)cc2F)c2nc(N3CC[C@H](O)C3)c(F)cc2c1=O)C(F)(F)F [Example 154]	human M2 receptor (Homo sapiens)	100
CC(C)(CC(F)(F)F)NC(=O)c1cn(-c2c(F)cc(F)cc2F)c2nc(N3C[C@@H](O)[C@@H](O)C3)c(F)cc2c1=O [Example 91]	human M2 receptor (Homo sapiens)	100
CC(C)C[C@@H](NC(=O)c1cn(-c2c(F)cc(F)cc2F)c2nc(N3C[C@@H](O)[C@H](O)C3)c(F)cc2c1=O)C(F)(F)F [Example 14]	human M2 receptor (Homo sapiens)	100
COC[C@@H](NC(=O)c1cn(-c2c(F)cc(F)cc2F)c2nc(N3C[C@@H](O)[C@H](O)C3)c(F)cc2c1=O)C(C)C [Example 17]	human M2 receptor (Homo sapiens)	83
CC(NC(=O)c1cn(-c2c(F)cc(F)cc2F)c2nc(N3CC[C@H](O)C3)c(Br)cc2c1=O)C(F)(F)C(F)(F)F (single isomer, unassigned) [Example 232]	human M2 receptor (Homo sapiens)	100

What does the record list as Emax for O=C(Nc1c(Cl)cccc1Cl)c1cn(-c2c(F)cc(F)cc2F)c2nc(N3C[C@@H](O)[C@H](O)C3)c(F)cc2c1=O [Example 130] ? 96

What does the record list as Emax for CC(C)C(NC(=O)c1cn(-c2c(F)cc(F)cc2F)c2nc(N3C[C@@H](O)[C@@H](O)C3)c(F)cc2c1=O)C(F)(F)F (single isomer, unassigned) [Example 137] ? 91

====

- Target Entity: UniProtKB P08172
- Method: Functional M2-GIRK1/4 activation test: allosteric potency (EC50) and efficiency at EC20 acetylcholine
- Protocol Conditions: CHO-DUKX-M2-GIRK cells; voltage-sensitive dye; acetylcholine at EC20; in some cases mean of two or more determinations
Listing of recorded pEC50 by entry.
Value format note: pEC50 is -log10 of concentration (mol/L); just state the number.

For orientation, consider the following solved cases.
Compound	Target Entity	pEC50
CC(NC(=O)c1cn(-c2c(F)cc(F)cc2F)c2nc(N3CC(CO)(CO)C3)c(F)cc2c1=O)C(F)(F)C(F)(F)F (racemic) [Example 170]	UniProtKB P08172	8.09
CCN(CC(C)O)c1nc2c(cc1F)c(=O)c(C(=O)N[C@@H](C1CC1)C(F)(F)F)cn2-c1c(F)cc(F)cc1F (single isomer, unassigned) [Example 67]	UniProtKB P08172	8.00
CC(C)(NC(=O)c1cn(-c2c(F)cc(F)cc2F)c2nc(N3CC[C@H](O)C3)c(F)cc2c1=O)C(F)(F)F [Example 125]	UniProtKB P08172	7.92
CC(C)(NC(=O)c1cn(-c2c(F)cc(F)cc2F)c2nc(N3C[C@@H](O)[C@H](O)C3)c(F)cc2c1=O)C(F)(F)F [Example 23]	UniProtKB P08172	8.26

Kindly consider the entry below.
What does the record list as pEC50 for CC(C)C(NC(=O)c1cn(-c2c(F)cc(F)cc2F)c2nc(N3CC[C@H](O)C3)c(F)cc2c1=O)C(C)C [Example 122] ? 8.45

====

- Target Entity: human M2 receptor (Homo sapiens, UniProt P08172)
- Method: Functional M2-GIRK1/4 activation test: allosteric potency (EC50) and efficiency at EC20 acetylcholine
- Protocol Conditions: CHO-DUKX-M2-GIRK cells; voltage-sensitive dye; acetylcholine at EC20; in some cases mean of two or more determinations
Listing of recorded pEC50 by entry.
Value format note: pEC50 is -log10 of concentration (mol/L); just state the number.

For orientation, consider the following solved cases.
>>> df
                                   molecule  endpoint  reported_value
0  CN1CCN(c2nc3c(cc2F)c(=O)c(C(=O)N[C@@H](C2CC2)C(F)(F)F)cn3-c2c(F)cc(F)cc2F)CC1CO (stereo partly drawn)     pEC50            7.57
1  O=C(N[C@@H](C1CC1)C(F)(F)F)c1cn(-c2c(F)cc(F)cc2F)c2nc(N3C[C@@H](O)[C@H](O)C3)c(Cl)cc2c1=O     pEC50            8.22

Kindly consider the entry below.
What does the record list as pEC50 for CCC(COC(F)(F)F)NC(=O)c1cn(-c2c(F)cc(F)cc2F)c2nc(N3CC[C@H](O)C3)c(F)cc2c1=O (single isomer, unassigned) [Example 110] ? 7.72

====

- Target Entity: human M2 receptor (Homo sapiens)
- Construct: expressed in transfected cells; host or cells: CHO-DUKX (CHO-DUKX-M2-GIRK)
- Method: Functional M2-GIRK1/4 activation test: allosteric potency (EC50) and efficiency at EC20 acetylcholine
- Assay type: cell-based
- Protocol Conditions: boosting of the acetylcholine effect at EC20 acetylcholine concentration; CHO-DUKX-M2-GIRK cells
Endpoint: Efficiency (%)
The response must be a number in % with no trailing unit.

For orientation, consider the following solved cases.
Compound	Target Entity	Unit Spec	Efficiency
CC(C)(C)C(NC(=O)c1cn(-c2c(F)cc(F)cc2F)c2nc(N3CC(CO)(CO)C3)c(F)cc2c1=O)C(F)(F)C(F)(F)F (single isomer, unassigned)	human M2 receptor (Homo sapiens)	%	99
CC(NC(=O)c1cn(-c2c(F)cc(F)cc2F)c2nc(N3CCC(O)C(O)C3)c(F)cc2c1=O)C(F)(F)C(F)(F)F (single isomer, unassigned)	human M2 receptor (Homo sapiens)	%	96
CC(NC(=O)c1cn(-c2c(F)cc(F)cc2F)c2nc(N3CC[C@H](O)C3)c(F)cc2c1=O)C(F)(F)C(F)(F)F (single isomer, unassigned)	human M2 receptor (Homo sapiens)	%	94

What does the record list as Efficiency for CC(NC(=O)c1cn(-c2c(F)cc(F)cc2F)c2nc(N3CC(CO)(CO)C3)c(F)cc2c1=O)C(F)(F)C(F)(F)F (racemic) [Example 169] ? 99

What does the record list as Efficiency for CCC(NC(=O)c1cn(-c2c(F)cc(F)cc2F)c2nc(N3CC[C@H](O)C3)c(F)cc2c1=O)C(C)C (single isomer, unassigned) ? 100

What does the record list as Efficiency for O=C(NC(C1CC1)C(F)(F)C(F)(F)F)c1cn(-c2c(F)cc(F)cc2F)c2nc(N3C[C@@H](O)[C@H](O)C3)c(F)cc2c1=O (single isomer, unassigned) ? 100

What does the record list as Efficiency for C[C@@H](NC(=O)c1cn(-c2c(F)cc(F)cc2Cl)c2nc(N3C[C@@H](O)[C@H](O)C3)c(F)cc2c1=O)C(F)(F)F (single isomer, unassigned) [Example 228] ? 93

What does the record list as Efficiency for CC(C)(NC(=O)c1cn(-c2c(F)cc(F)cc2Cl)c2nc(N3C[C@@H](O)[C@H](O)C3)c(F)cc2c1=O)C(F)(F)F (single isomer, unassigned) ? 60

What does the record list as Efficiency for CCC(COC(F)(F)F)NC(=O)c1cn(-c2c(F)cc(F)cc2F)c2nc(N3C[C@@H](O)[C@H](O)C3)c(F)cc2c1=O (single isomer, unassigned) ? 100

What does the record list as Efficiency for O=C(N[C@@H](C1CC1)C(F)(F)F)c1cn(-c2c(F)cc(F)cc2Cl)c2nc(N3C[C@@H](O)[C@H](O)C3)c(F)cc2c1=O (single isomer, unassigned) ? 83

What does the record list as Efficiency for O=C(NCC(F)(F)F)c1cn(-c2c(F)cc(F)cc2Cl)c2nc(N3C[C@@H](O)[C@H](O)C3)c(F)cc2c1=O (single isomer, unassigned) [Example 223] ? 86
